assayProtocol: Antibiotic blood levels in mice following intramuscular administration (paper disc-agar diffusion, Escherichia coli NIHJ as assay organism)
Type: in vivo
experimentalConditions: mouse, im, I.M., 20 mg./kg., read-out: Blood level, Half-life
# strict inequality: half-life < 50 min yields fulfilled, everything else yields not fulfilled

// known answers, use as guide
compound	className
O=C(O)CCc1ccc[n+](CC2=C(C(=O)[O-])N3C(=O)C(NC(=O)[C@H](NC(=O)c4cnc5cccnc5c4O)c4ccc(O)cc4)C3SC2)c1 (some centres unmarked) [BB-S619]	not fulfilled
O=C([O-])C1=C(C[n+]2ccc(CCS(=O)(=O)O)cc2)CSC2C(NC(=O)[C@H](NC(=O)c3cnc4cccnc4c3O)c3ccc(O)cc3)C(=O)N12 (some centres unmarked) [BB-S588]	not fulfilled
O=C([O-])C1=C(C[n+]2cccc(S(=O)(=O)O)c2)CSC2C(NC(=O)[C@H](NC(=O)c3cnc4cccnc4c3O)c3ccc(O)cc3)C(=O)N12 (some centres unmarked) [BB-S587]	fulfilled
O=C(O)C=Cc1ccc[n+](CC2=C(C(=O)[O-])N3C(=O)C(NC(=O)[C@H](NC(=O)c4cnc5cccnc5c4O)c4ccsc4)C3SC2)c1 (some centres unmarked) [BB-S626]	fulfilled
O=C([O-])C1=C(C[n+]2cccc(S(=O)(=O)O)c2)CSC2C(NC(=O)[C@H](NC(=O)c3cnc4cccnc4c3O)c3ccc(O)c(Cl)c3)C(=O)N12 (some centres unmarked) [BB-S601]	not fulfilled

For this compound, is half-life lower than 50 min? O=C(O)Cc1ccc[n+](CC2=C(C(=O)[O-])N3C(=O)C(NC(=O)[C@H](NC(=O)c4cnc5cccnc5c4O)c4ccc(O)cc4)C3SC2)c1 (some centres unmarked) [BB-S580]
fulfilled

For this compound, is half-life lower than 50 min? O=C([O-])C1=C(C[n+]2cccc(S(=O)(=O)O)c2)CSC2C(NC(=O)[C@H](NC(=O)c3cnc4cccnc4c3O)c3ccsc3)C(=O)N12 (some centres unmarked) [BB-S625]
not fulfilled

For this compound, is half-life lower than 50 min? O=C(O)CSc1cc[n+](CC2=C(C(=O)[O-])N3C(=O)C(NC(=O)[C@H](NC(=O)c4cnc5cccnc5c4O)c4ccc(O)c(Cl)c4)C3SC2)cc1 (some centres unmarked) [BB-S621]
not fulfilled

For this compound, is half-life lower than 50 min? O=C([O-])C1=C(C[n+]2ccc(CCS(=O)(=O)O)cc2)CSC2C(NC(=O)[C@H](NC(=O)c3cnc4cccnc4c3O)c3ccc(O)c(Cl)c3)C(=O)N12 (some centres unmarked) [BB-S605]
not fulfilled

----------
System: Ent. cloacae (3), Pr. vulgaris (1), Pr. morganii (1), S. marcescen (1)
assayProtocol: In vitro MIC, serial two-fold agar dilution, primary evaluation Gn-II (Ent. cloacae, Pr. vulgaris, Pr. morganii, S. marcescens)
Format: cell-based
experimentalConditions: CBPC = 100%; geometric mean of MICs; Mueller-Hinton agar
Experimental: Minimun inhibitory concentrations (MIC) were determined by the serial two-fold agar dilution method using Steers' apparatus on Mueller-Hinton agar plate against 31 test organisms for the primary screening and also against 64 strains of Pseudomonas aeruginosa for the secondary evaluation. The results are shown in Table 1 in terms of relative activity with respect to the standard compound CBPC (carbenicillin) which was set at 100%. […]
Exercise: state measured In vitro relative activity, primary evaluation Gn-II (6) for each of the compounds provided.

The cases that follow already have their In vitro relative activity, primary evaluation Gn-II (6) on record.
compound	testResult
O=C(O)C=Cc1ccc[n+](CC2=C(C(=O)[O-])N3C(=O)C(NC(=O)[C@H](NC(=O)c4cnc5cccnc5c4O)c4ccccc4)C3SC2)c1 (stereo partly drawn) [BB-S603]	38%
O=C([O-])C1=C(C[n+]2cccc(S(=O)(=O)O)c2)CSC2C(NC(=O)[C@H](NC(=O)c3cnc4cccnc4c3O)c3ccc(O)cc3)C(=O)N12 (stereo partly drawn) [BB-S587]	16%
O=C(O)CSc1cc[n+](CC2=C(C(=O)[O-])N3C(=O)C(NC(=O)[C@H](NC(=O)c4cnc5cccnc5c4O)c4ccc(O)c(Cl)c4)C3SC2)cc1 (stereo partly drawn) [BB-S621]	18%
O=C([O-])C1=C(C[n+]2cccc(S(=O)(=O)O)c2)CSC2C(NC(=O)[C@H](NC(=O)c3cnc4cccnc4c3O)c3ccsc3)C(=O)N12 (stereo partly drawn) [BB-S625]	7%
O=C(O)CSc1cc[n+](CC2=C(C(=O)[O-])N3C(=O)C(NC(=O)[C@H](NC(=O)c4cnc5cccnc5c4O)c4ccc(O)cc4)C3SC2)cc1 (stereo partly drawn) [BB-S599]	83%

I'd like to know its In vitro relative activity, primary evaluation Gn-II (6). The compound in question is O=C([O-])C1=C(C[n+]2cccc(C(=O)O)c2)CSC2C(NC(=O)[C@H](NC(=O)c3cnc4cccnc4c3O)c3ccc(O)cc3)C(=O)N12 (stereo partly drawn) [BB-S579]
22%
